Reference for the values: paper PMC5540273

system: CLK1; details: concentration: 1 μM, replicates: in singlicate; n = 1;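 also: KINOMEscan kinase panel screen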
Measurement Name: %Inh

Sample records with %Inh:
[
  {
    "Compound": "Cc1nnc(-c2ccc3occ(-c4ccc(S(C)=O)cc4)c3c2)[nH]1 (stereo not drawn)",
    "System": "CLK1",
    "Result": "0%"
  },
  {
    "Compound": "COc1ccccc1CNC(=O)c1cc(C(=O)c2ccccc2C)c[nH]1",
    "System": "CLK1",
    "Result": "17%"
  },
  {
    "Compound": "Cn1ccc2ncnc(Oc3cccc(C(=O)Nc4ccccc4)c3)c21",
    "System": "CLK1",
    "Result": "9%"
  },
  {
    "Compound": "Cl.NC(=O)c1cccc(Nc2nccc(Nc3ccc(Oc4cccc(Cl)c4)c(Cl)c3)n2)c1",
    "System": "CLK1",
    "Result": "13%"
  }
]

Item "Cc1ccc(NC(=O)Nc2cccc(Cl)c2)cc1-c1ccc(C(=O)Nc2ccncc2)cc1" was tested on CLK1; the reported %Inh is 30%

Item "Cl.O=C(Nc1cccc(-c2nn3ncccc3c2-c2ccnc(Nc3cccnc3)n2)c1)c1c(F)cccc1F" was tested on CLK1; the reported %Inh is 19%

Item "CC(C)(C)c1ccc(C(=O)Nc2cn3cc(Cl)ccc3n2)cc1" was tested on CLK1; the reported %Inh is 75%

Item "COC(=O)c1c(-c2ccccc2)c2cc(OC)ccc2c(=O)n1Cc1ccccc1" was tested on CLK1; the reported %Inh is 0%

----------
tested on: p38-gamma; construct: gene MAPK12; settings: concentration: 1 μM, replicates: in singlicate; n = 1
Measurement Name: %Inh (%)
Express the result in % but write the number alone.

[
  {
    "Compound": "CCCc1ccc(S(=O)(=O)NC2CCN(c3ccnc(Nc4ccc(F)cc4)n3)C2)cc1 (stereo not drawn)",
    "System": "p38-gamma",
    "Units Label": "%",
    "Result": 0
  },
  {
    "Compound": "CC(=O)Nc1nc2cnc(Nc3cc(NC(=O)c4cccc(CCC#N)c4)ccc3C)nc2s1",
    "System": "p38-gamma",
    "Units Label": "%",
    "Result": 32
  },
  {
    "Compound": "CC1=C(C(=O)Nc2cc3cn[nH]c3cc2F)C(c2ccc(C(F)(F)F)cc2)CC(=O)N1 (stereo not drawn)",
    "System": "p38-gamma",
    "Units Label": "%",
    "Result": 0
  },
  {
    "Compound": "Cc1cccc(-c2cc(Nc3ccncc3)c3ccccc3n2)n1",
    "System": "p38-gamma",
    "Units Label": "%",
    "Result": 22
  }
]

The compound identified as "Cc1csc(-c2nc(Nc3ccncc3)c3ccccc3n2)n1" registered its %Inh at 39

The compound identified as "Cc1c(O)cccc1Nc1ccnc2ccc(C(F)(F)F)cc12.Cl" registered its %Inh at 0

The compound identified as "COC(=O)c1c(-c2ccccc2)c2cc(C(=O)O)ccc2c(=O)n1Cc1ccccc1" registered its %Inh at 0

The compound identified as "NC(=O)c1nnc2ccccc2c1N" registered its %Inh at 43

The compound identified as "COc1ccc(Nc2nccc(NCCNC(=O)Nc3ccccc3F)n2)cc1" registered its %Inh at 10
